# measured-target: recombinant human ROR2 D354E (human, UniProt Q01974 34-403)
# Sequence (Q01974 34-403 D354E limits assumed): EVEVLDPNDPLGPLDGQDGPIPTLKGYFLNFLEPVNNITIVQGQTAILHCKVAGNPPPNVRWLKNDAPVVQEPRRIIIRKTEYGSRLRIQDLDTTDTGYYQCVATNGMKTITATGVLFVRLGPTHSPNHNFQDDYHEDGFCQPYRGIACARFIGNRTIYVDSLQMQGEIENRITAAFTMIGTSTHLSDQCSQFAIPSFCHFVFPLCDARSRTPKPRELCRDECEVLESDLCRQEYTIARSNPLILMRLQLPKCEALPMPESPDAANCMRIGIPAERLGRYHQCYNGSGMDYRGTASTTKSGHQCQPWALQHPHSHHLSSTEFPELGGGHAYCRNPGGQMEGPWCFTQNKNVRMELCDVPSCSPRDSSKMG
# experiment: dot blot on nylon membrane, anti-human IgG-HRP
assay-endpoint: binding result

h6E6-077 (antibody, human IgG1, V domains shown, human IgG1; also called clone 77) VH: EVQLVESGGGLVKPGGSLRLSCAASGFTFSHYGTSWVRQAPGKGLEWVSTISSGGGYTHYAPSVKGRFTISRDNAKNSLYLQMNSLRAEDTAVYYCARHPRDFSYAIDYWGQGTTVTVSS VL: EIVMTQSPATLSVSPGERATLSCKASQDVGHYVAWYQQKPGQAPRLLIYWASTRATGIPARFSGSGSGTEFTLTISSLQSEDFAVYYCQQYNIYPWTFGQGTKVEIK :: no binding
h6E6-055 (antibody, human IgG1, V domains shown, human IgG1; also called clone 55) VH: EVQLVESGGGLVKPGGSLRLSCAASGFTFSQYGHSWVRQAPGKGLEWVSTISSGGGYTHYAESVKGRFTISRDNAKNSLYLQMNSLRAEDTAVYYCARHPRDFSYAQDYWGQGTTVTVSS VL: EIVMTQSPATLSVSPGERATLSCKASQDVGHYLAWYQQKPGQAPRLLIYWASTRATGIPARFSGSGSGTEFTLTISSLQSEDFAVYYCQQYNIYPWTFGQGTKVEIK :: no binding
h6E6-107 (antibody, human IgG1, V domains shown, human IgG1; also called clone 107) VH: EVQLVESGGGLVKPGGSLRLSCAASGFTFSTYGASWVRQAPGKGLEWVSTISSGGGYTHYAPSVKGRFTISRDNAKNSLYLQMNSLRAEDTAVYYCARHPRDFSYALDYWGQGTTVTVSS VL: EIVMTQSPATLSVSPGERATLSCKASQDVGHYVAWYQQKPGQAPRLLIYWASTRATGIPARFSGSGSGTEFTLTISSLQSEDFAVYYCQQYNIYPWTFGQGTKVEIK :: no binding
